Data provenance is the supplement of paper PMC11281043.

Tested on: Danio rerio embryo/larva
Assay: max % larvae with blood pooling across tested concentrations; higher = more toxic; extreme values may be limits of the assay
Settings: exposure: 6-8 hpf to 5 dpf, scored at 6 dpf
List of max % larvae values.

COMPOUND	ASSAY_TARGET	max % larvae / %
O=C(O)CCC(F)(C(F)(F)F)C(F)(F)F [4,4-bis(Trifluoromethyl)-4-fluoropropanoic acid] (max tested concentration (log10 uM): 2)	Danio rerio embryo/larva	0
O=C(O)C(F)(F)C(F)(F)C(F)(F)C(F)(F)C(F)(F)C(F)(F)C(F)(F)C(F)(F)F [Perfluorononanoic acid] (max tested concentration (log10 uM): 2)	Danio rerio embryo/larva	16.7
CCNS(=O)(=O)C(F)(F)C(F)(F)C(F)(F)C(F)(F)C(F)(F)C(F)(F)C(F)(F)C(F)(F)F [N-Ethylperfluorooctane sulfonamide] (max tested concentration (log10 uM): 1)	Danio rerio embryo/larva	16.7
O=C(O)C(F)(F)OC(F)(F)C(F)(F)OC(F)(F)C(F)(F)OC(F)(F)C(F)(F)C(F)(F)C(F)(F)F [Perfluoro-3,6,9-trioxatridecanoic acid] (max tested concentration (log10 uM): 1)	Danio rerio embryo/larva	16.7
O=S(=O)(O)C(F)(F)C(F)(F)C(F)(F)C(F)(F)C(F)(F)C(F)(F)C(F)(F)C(F)(F)F [Potassium perfluorooctanesulfonate] (max tested concentration (log10 uM): 2)	Danio rerio embryo/larva	33.3
O=S(=O)(Cl)C(F)(F)C(F)(F)C(F)(F)C(F)(F)C(F)(F)C(F)(F)C(F)(F)C(F)(F)F [Perfluoro-1-octanesulfonyl chloride] (max tested concentration (log10 uM): 2)	Danio rerio embryo/larva	0
C=CC(=O)OCCC(F)(F)C(F)(F)C(F)(F)C(F)(F)C(F)(F)C(F)(F)C(F)(F)C(F)(F)F [2-(Perfluorooctyl)ethyl acrylate] (max tested concentration (log10 uM): 2)	Danio rerio embryo/larva	0

* * *

Test system: Danio rerio embryo/larva
Test: max % larvae with abnormal position across tested concentrations; higher = more toxic; extreme values may be limits of the assay
Conditions: exposure: 6-8 hpf to 5 dpf, scored at 6 dpf
List of max % larvae values.
MEASURE_NAME: max % larvae (%)

MOLECULE	TEST_RESULT
NC(=O)C(F)(F)C(F)(F)C(F)(F)C(F)(F)C(N)=O [Octafluoroadipamide] (max tested concentration (log10 uM): 2)	0
C=C(C)C(=O)OCCC(F)(F)C(F)(F)C(F)(F)C(F)(F)C(F)(F)C(F)(F)F [2-(Perfluorohexyl)ethyl methacrylate] (max tested concentration (log10 uM): 2)	0
NS(=O)(=O)C(F)(F)C(F)(F)C(F)(F)C(F)(F)C(F)(F)C(F)(F)C(F)(F)C(F)(F)F [Perfluorooctanesulfonamide] (max tested concentration (log10 uM): 0)	8.33
C=CC(=O)OCC(F)(F)C(F)(F)C(F)(F)C(F)(F)COC(=O)C=C [1H,1H,6H,6H-Perfluorohexane-1,6-diol diacrylate] (max tested concentration (log10 uM): 1)	4.17
CNS(=O)(=O)C(F)(F)C(F)(F)C(F)(F)C(F)(F)C(F)(F)C(F)(F)C(F)(F)C(F)(F)F [N-Methylperfluorooctanesulfonamide] (max tested concentration (log10 uM): 2)	8.33

* * *

Tested on: Danio rerio embryo/larva
Assay: BMC any abnormality; max tested concentration (log10 uM): 2; higher = less potent
Conditions: exposure: 6-8 hpf to 5 dpf, scored at 6 dpf
Use 9 µM as the dividing line for BMC any abnormality, with the line itself on the 1 (yes) side and lower values as 0 (no).

COMPOUND	LABEL
O=C(O)C(F)(F)OC(F)(F)C(F)(F)OC(F)(F)C(F)(F)OC(F)(F)C(F)(F)C(F)(F)C(F)(F)F	0 (no)
O=S(=O)(O)C(F)(F)C(F)(F)C(F)(F)C(F)(F)C(F)(F)C(F)(F)C(F)(F)C(F)(F)F [Perfluorooctanesulfonic acid]	0 (no)
NCC(F)(F)C(F)(F)C(F)(F)C(F)(F)C(F)(F)C(F)(F)F	1 (yes)
O=C(O)C(F)(F)C(F)(F)C(F)(F)C(F)(F)C(F)(F)C(F)(F)C(F)(F)C(F)(F)C(F)(F)F	1 (yes)
O=C(O)C(F)(F)C(F)(F)C(F)(F)C(F)(F)C(F)(F)C(F)(F)C(F)(F)C(F)(F)C(F)(F)C(F)F	1 (yes)
CCNS(=O)(=O)C(F)(F)C(F)(F)C(F)(F)C(F)(F)C(F)(F)C(F)(F)C(F)(F)C(F)(F)F [N-Ethylperfluorooctane sulfonamide]	0 (no)
O=C(O)CCC(F)(F)C(F)(F)C(F)(F)F	1 (yes)
CNS(=O)(=O)C(F)(F)C(F)(F)C(F)(F)C(F)(F)C(F)(F)C(F)(F)C(F)(F)C(F)(F)F [N-Methylperfluorooctanesulfonamide]	0 (no)
FC(F)(F)C(F)(F)C(F)(F)C(F)(F)C(F)(F)C(F)(F)C(F)(F)I	1 (yes)
O=P(O)(O)CCC(F)(F)C(F)(F)C(F)(F)C(F)(F)C(F)(F)C(F)(F)F	1 (yes)
NS(=O)(=O)C(F)(F)C(F)(F)C(F)(F)C(F)(F)C(F)(F)C(F)(F)F [Perfluorohexanesulfonamide]	0 (no)
O=P(O)(O)CCC(F)(F)C(F)(F)C(F)(F)C(F)(F)C(F)(F)C(F)(F)C(F)(F)C(F)(F)F	0 (no)
CC(C)(C)C(=O)CC(=O)C(F)(F)C(F)(F)C(F)(F)F	1 (yes)
OCCCC(F)(F)C(F)(F)C(F)(F)C(F)(F)C(F)(F)C(F)(F)C(F)(F)F	1 (yes)
C=C(C)C(=O)OCC(F)(F)C(F)(F)C(F)(F)C(F)F [1H,1H,5H-Perfluoropentyl methacrylate]	1 (yes)
O=S(=O)(O)C(F)(F)C(F)(F)C(F)(F)C(F)(F)C(F)(F)C(F)(F)C(F)(F)C(F)(F)F [Potassium perfluorooctanesulfonate]	0 (no)
